Recorded Kd values for a group of binders are listed next.
Target: T1, hNPR1-ANP complex (human, UniProt P01160 124-151, limits assumed)
T1 construct: hNPR1 antigen in the presence of ANP; also called hNPR1 + 100 nM ANP
T1 sequence: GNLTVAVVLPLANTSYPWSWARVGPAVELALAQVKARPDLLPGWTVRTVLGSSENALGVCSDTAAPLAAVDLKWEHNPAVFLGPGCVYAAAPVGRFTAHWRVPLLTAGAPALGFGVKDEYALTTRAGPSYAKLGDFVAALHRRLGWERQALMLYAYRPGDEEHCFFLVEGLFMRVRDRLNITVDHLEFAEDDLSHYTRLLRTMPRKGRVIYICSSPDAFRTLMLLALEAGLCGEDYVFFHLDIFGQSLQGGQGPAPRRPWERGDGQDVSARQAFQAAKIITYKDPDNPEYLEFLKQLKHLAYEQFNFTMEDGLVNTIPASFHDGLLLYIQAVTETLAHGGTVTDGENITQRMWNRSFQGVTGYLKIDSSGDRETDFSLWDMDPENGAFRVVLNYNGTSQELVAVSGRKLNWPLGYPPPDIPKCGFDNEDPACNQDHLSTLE
T1 sequence (peptide): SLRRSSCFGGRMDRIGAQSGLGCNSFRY
Test: SET, FabCys
Respond with the bare value in nM.

# example entries with known answers
1) ZZ13 (FabCys format) (Fab, V domains shown, Monovalent FabCys) VH: EVQLVESGGGLVQPGGSLRLSCAASGFTFSRYYINWVRQAPGKGLEWVASIHQHGLETRYVESVKGRFTISRDNAKNSLYLQMNSLRAEDTAVYYCARSLRRRSTEHAGFDVWGQGTLVTVSS VL: DIQMTQSPSSLSASVGDRVTITCRASQGISNYLAWYQQKPGKVPKLLIYAASTLQSGVPSRFSGSGSGTDFTLTISSLQPEDVATYYCQQADKFPYTFGQGTKVEIK    1.3
2) ZZ12 (FabCys format) (Fab, V domains shown, Monovalent FabCys) VH: EVQLVESGGGLVQPGGSLRLSCAASGFSFSKYYLNWVRQAPGKGLEWVASIHQQAHEKKYVESVKGRFTISRDNAKNSLYLQMNSLRAEDTAVYYCARSLRRRSTEHAGFDVWGQGTLVTVSS VL: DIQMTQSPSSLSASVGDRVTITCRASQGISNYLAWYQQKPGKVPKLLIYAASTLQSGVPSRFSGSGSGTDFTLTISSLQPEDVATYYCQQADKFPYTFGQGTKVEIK    0.32
3) ZZ05 (FabCys format) (Fab, V domains shown, Monovalent FabCys) VH: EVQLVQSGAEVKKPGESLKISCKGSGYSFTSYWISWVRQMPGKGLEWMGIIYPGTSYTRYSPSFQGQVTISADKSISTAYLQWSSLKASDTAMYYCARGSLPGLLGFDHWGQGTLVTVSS VL: QSVLTQPPSVSGAPGQRVTISCTGSSSNIGAGYDVHWYQQLPGTAPKLLIYGNSNRPNGVPDRFSGSKSGTSASLAITGLQAEDEADYYCQSYGAFPRFVVFGGGTKLTVL    1.2
4) ZZ16 (FabCys format) (Fab, V domains shown, Monovalent FabCys) VH: EVQLLESGGGLVQPGGSLRLSCAASGFTFGTYAMTWVRQAPGKGLEWVSSISASGYYANYAGSVKGRFTISRDNSKNTLYLQMNSLRAEDTAVYYCARPYLGDRRSYGFDHWGQGTLVTVSS VL: QSALTQPASVSGSPGQSITISCTGTSSDVGSYNLVSWYQQHPGKAPKLMIYEGSKRPSGVSNRFSGSKSGNTASLTISGLQAEDEADYYCSSYGFHIVVVVFGGGTKLTVL    0.034

Moving on to the next binder.
stdin: // lookup Kd for ZZ15 (FabCys format) (Fab, V domains shown, Monovalent FabCys) VH: EVQLLESGGGLVQPGGSLRLSCAASGFTFASYAITWVRQAPGKGLEWVSTISGSGVYTYYAESVKGRFTISRDNSKNTLYLQMNSLRAEDTAVYYCARPYLGDRRSYGFDHWGQGTLVTVSS VL: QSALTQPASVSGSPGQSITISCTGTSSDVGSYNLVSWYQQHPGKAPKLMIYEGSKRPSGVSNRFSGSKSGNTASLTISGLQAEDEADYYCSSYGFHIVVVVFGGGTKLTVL
stdout: 0.074

Where these numbers come from: patent US20240052042A1
